Quick reference for pIC50 among some molecules
- Species on record: Cavia porcellus
- ASSAY: In vitro inhibition of spontaneous tone of guinea pig tracheal spirals
- Type: functional
- TEST_SETTINGS: Trachea
pIC50: −log10 of the molar value.

[
  {
    "SMILES_STR": "COC(=N)c1ccc2c(c1)C(n1ccccc1=O)=CC(C)(C)C2=O",
    "QUALIFYING_SIGN": "=",
    "pIC50": 5.51
  },
  {
    "SMILES_STR": "CC1(C)C(=O)c2ccc(S(=O)(=O)c3ccccc3)cc2[C@@H](n2ccccc2=O)[C@@H]1O",
    "QUALIFYING_SIGN": "=",
    "pIC50": 6.15
  },
  {
    "SMILES_STR": "CC1(C)C=C(N2CCCC2=O)c2cc(Cl)ccc2C1=O",
    "QUALIFYING_SIGN": "<",
    "pIC50": 5.00
  },
  {
    "SMILES_STR": "CC1(C)C=C(n2ccccc2=O)c2cc(C(F)(F)F)ccc2C1=O",
    "QUALIFYING_SIGN": "=",
    "pIC50": 6.30
  },
  {
    "SMILES_STR": "CC1(C)C=C(N2CCCC2=O)c2cc(C#N)ccc2C1=O",
    "QUALIFYING_SIGN": "=",
    "pIC50": 6.05
  },
  {
    "SMILES_STR": "CC1(C)C=C(n2ccccc2=O)c2cc(C#N)ccc2C1=O",
    "QUALIFYING_SIGN": "=",
    "pIC50": 6.30
  },
  {
    "SMILES_STR": "CC1(C)C(=O)c2ccc(C#N)cc2[C@@H](N2Cc3ccccc3C2=O)[C@@H]1O",
    "QUALIFYING_SIGN": "=",
    "pIC50": 5.96
  },
  {
    "SMILES_STR": "CC1(C)C=C(NC(=O)c2ccccn2)c2cc(C#N)ccc2C1=O",
    "QUALIFYING_SIGN": "=",
    "pIC50": 5.51
  },
  {
    "SMILES_STR": "CC1(C)C=C(n2ccccc2=O)c2cc(F)ccc2C1=O",
    "QUALIFYING_SIGN": "=",
    "pIC50": 5.41
  },
  {
    "SMILES_STR": "CCc1ccc2c(c1)C(n1ccccc1=O)=CC(C)(C)C2=O",
    "QUALIFYING_SIGN": "=",
    "pIC50": 5.29
  },
  {
    "SMILES_STR": "CC1(C)C(=O)c2ccc(C#N)cc2[C@@H](NC(=O)c2ccc(Cl)cc2Cl)[C@@H]1O",
    "QUALIFYING_SIGN": "<",
    "pIC50": 5.00
  },
  {
    "SMILES_STR": "C#Cc1ccc2c(c1)C(n1ccccc1=O)=CC(C)(C)C2=O",
    "QUALIFYING_SIGN": "=",
    "pIC50": 6.70
  },
  {
    "SMILES_STR": "COc1ccc2c(c1)C(n1ccccc1=O)=CC(C)(C)C2=O",
    "QUALIFYING_SIGN": "=",
    "pIC50": 5.51
  },
  {
    "SMILES_STR": "CC1(C)C(=O)c2ccc(C#N)cc2[C@@H](NC(=O)c2cccnc2)[C@@H]1O",
    "QUALIFYING_SIGN": "=",
    "pIC50": 5.39
  },
  {
    "SMILES_STR": "CC(=O)O[C@H]1[C@H](n2ccccc2=O)c2cc(C#N)ccc2C(=O)C1(C)C",
    "QUALIFYING_SIGN": "=",
    "pIC50": 5.70
  },
  {
    "SMILES_STR": "CC1(C)C=C(n2ccccc2=O)c2cc(C(N)=O)ccc2C1=O",
    "QUALIFYING_SIGN": "<",
    "pIC50": 5.00
  },
  {
    "SMILES_STR": "CC1(C)C=C(N2CCCC2=O)c2cc(Br)ccc2C1=O",
    "QUALIFYING_SIGN": "=",
    "pIC50": 5.14
  },
  {
    "SMILES_STR": "CC1(C)C(=O)c2ccc(C#N)cc2[C@@H](OC2=CC(=O)CC2)[C@@H]1O",
    "QUALIFYING_SIGN": "<",
    "pIC50": 5.00
  },
  {
    "SMILES_STR": "CC1(C)C(=O)c2ccc(Br)cc2[C@@H](n2ccccc2=O)[C@@H]1O",
    "QUALIFYING_SIGN": "<",
    "pIC50": 5.00
  },
  {
    "SMILES_STR": "C=CCn1nc(O[C@@H]2c3cc(C#N)ccc3C(=O)C(C)(C)[C@H]2O)ccc1=O",
    "QUALIFYING_SIGN": "=",
    "pIC50": 5.41
  },
  {
    "SMILES_STR": "CC1(C)Oc2ccc(C#N)cc2[C@@H](N2CCCC2=O)[C@@H]1O",
    "QUALIFYING_SIGN": "=",
    "pIC50": 6.52
  }
]
